# Study target: UniProtKB Q03145
Quantity name: IC50
Report as: number unit

Lookup: Sample C[C@H](CCC(=O)O)[C@H]1CC[C@H]2[C@@H]3CC[C@@H]4C[C@H](O)CC[C@]4(C)[C@H]3CC[C@]12C [LCA, lithocholic acid] — what was its IC50?
Found: 57 µM

----------
# Study target: EphB4 (Homo sapiens, UniProt P54760)
# Construct: EphB4 phosphorylation on T47D breast cancer cells; endogenous in cells; host or cells: T47D
# Sequence (P54760 16-987): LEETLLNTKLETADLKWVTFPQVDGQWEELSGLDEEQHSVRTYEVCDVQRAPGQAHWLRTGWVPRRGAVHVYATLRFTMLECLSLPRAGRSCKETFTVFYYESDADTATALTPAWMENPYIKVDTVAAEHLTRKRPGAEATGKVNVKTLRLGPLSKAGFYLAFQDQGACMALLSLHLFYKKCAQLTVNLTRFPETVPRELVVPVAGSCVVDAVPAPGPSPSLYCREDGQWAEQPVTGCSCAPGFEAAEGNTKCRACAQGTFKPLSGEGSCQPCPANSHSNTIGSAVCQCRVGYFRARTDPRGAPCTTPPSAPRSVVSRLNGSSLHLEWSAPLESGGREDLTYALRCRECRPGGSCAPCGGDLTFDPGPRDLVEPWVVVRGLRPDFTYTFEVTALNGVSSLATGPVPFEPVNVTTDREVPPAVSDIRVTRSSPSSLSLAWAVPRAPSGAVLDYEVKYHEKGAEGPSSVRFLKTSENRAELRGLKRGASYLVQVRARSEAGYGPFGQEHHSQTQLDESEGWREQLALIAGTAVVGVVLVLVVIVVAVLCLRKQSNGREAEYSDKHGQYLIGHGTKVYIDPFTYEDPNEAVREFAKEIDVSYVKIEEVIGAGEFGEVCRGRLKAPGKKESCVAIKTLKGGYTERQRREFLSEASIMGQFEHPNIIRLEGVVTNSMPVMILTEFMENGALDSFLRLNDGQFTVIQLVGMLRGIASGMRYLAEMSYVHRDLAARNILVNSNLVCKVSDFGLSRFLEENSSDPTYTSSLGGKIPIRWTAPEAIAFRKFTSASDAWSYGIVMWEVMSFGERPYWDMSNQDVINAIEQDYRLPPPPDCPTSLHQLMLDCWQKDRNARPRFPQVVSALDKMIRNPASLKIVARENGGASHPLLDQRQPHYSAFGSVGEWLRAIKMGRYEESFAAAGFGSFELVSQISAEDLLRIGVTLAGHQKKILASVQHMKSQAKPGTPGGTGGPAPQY
# Experiment: Phosphorylated-EphB4 sandwich ELISA in T47D cell lysates
# Format: cell-based
# Recorded conditions: T47D cells, 3 µg/ml ephrinB2-Fc preclustered with 0.3 µg/ml IgG Fc fragment; read-out: IC50 EphB4 phosphorylation
# Procedure: Cells were seeded in 12-well plates at concentration of 10^5cells/ml in complete medium until they reached ∼40% confluence and serum starved overnight. […] The protein content of supernatant was measured with BCA protein assay kit (Thermo scientific), standardized to 200 µg/ml and transferred into a clean test tube ready to be used. […]
Quantity name: pIC50
Convention used: pIC50 is expressed as -log10 of the molar concentration.

Lookup: Sample "C[C@H](CCC(=O)O)[C@H]1CC[C@H]2[C@@H]3CC[C@@H]4C[C@H](O)CC[C@]4(C)[C@H]3CC[C@]12C" — what was its pIC50?
Found: 3.85

----------
# Study target: EphA2-ephrinA1 binding (Mus musculus, UniProt Q03145)
# Sequence (Q03145 26-538 limits assumed): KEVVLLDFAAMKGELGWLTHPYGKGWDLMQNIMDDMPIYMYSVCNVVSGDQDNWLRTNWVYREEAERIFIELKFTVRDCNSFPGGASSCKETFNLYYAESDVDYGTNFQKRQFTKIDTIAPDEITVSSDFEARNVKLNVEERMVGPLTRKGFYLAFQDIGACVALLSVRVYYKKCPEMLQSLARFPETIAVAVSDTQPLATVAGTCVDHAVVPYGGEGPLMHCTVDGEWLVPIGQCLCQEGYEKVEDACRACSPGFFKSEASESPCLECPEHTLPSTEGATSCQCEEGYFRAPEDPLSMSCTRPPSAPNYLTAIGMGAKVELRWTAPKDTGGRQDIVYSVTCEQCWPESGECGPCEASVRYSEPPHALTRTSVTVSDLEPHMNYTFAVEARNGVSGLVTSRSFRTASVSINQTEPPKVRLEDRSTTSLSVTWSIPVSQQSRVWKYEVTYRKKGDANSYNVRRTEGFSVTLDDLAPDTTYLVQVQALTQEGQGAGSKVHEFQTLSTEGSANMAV
Quantity name: pKi
Convention used: pKi is expressed as -log10 of the molar concentration.

Lookup: Sample "C[C@H](CCC(=O)O)[C@H]1CC[C@H]2[C@@H]3CC[C@@H]4C[C@H](O)CC[C@]4(C)[C@H]3CC[C@]12C" — what was its pKi?
Found: 4.31
